Hi there, I'd appreciate the recorded normalized growth for every entry that follows.
# ASSAY EXPLANATION: chemical genetic growth profiling, strain panel (AID 1159580);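 also: tested at 20 µM; growth read once vehicle control cultures reached saturation at 30 °C; 1 = growth at the plate median or of vehicle wells; lower values mean less growth of the strain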
# EXPERIMENTAL SETUP: S. cerevisiae deletion strains, growth OD, locus YKL009W, strain mrt4, active compounds read low
The campaign covered roughly 5,500 compounds. About 2,000 (36%) were called active. Another 18% or so got no clear call; they are omitted. This is one part of the list.
Output spec: single numeric token, no unit.

Supply normalized growth value. Item: COc1cc2c(cc1OC)C(=O)C(CC1CCN(Cc3ccccc3)CC1)C2 (stereo unspecified)
0.986

Provide only the value of recorded normalized growth for CCCCOc1ccc(OCCCN2CCOCC2)cc1
1

Quote normalized growth reported for OC(CCN1CCCCC1)(c1ccccc1)c1ccccc1 please.
1.03

Provide only the value of recorded normalized growth for Cc1ccc(C(=O)C(C)CN2CCCCC2)cc1 (stereo unspecified)
1.03

Identify normalized growth associated with the molecule CC1(C)S[C@@H]2[C@H](NC(=O)[C@H](NC(=O)N3CCNC3=O)c3ccccc3)C(=O)N2C1C(=O)O (stereo partly specified)
0.967

Please give the documented normalized growth of CC(C)=CCc1c(O)cc(C)oc1=O
1.01

All values here come from PubChem BioAssay AID1159580.
